Tested on: Musca domestica
Measurement Description: Musca domestica test
Type: in vivo
Assay Conditions: application rate 100 ppm; adult houseflies; after 2 days
Each item that follows carries a reported efficacy (kill in %).
Use % as the unit, but write only the number.

Smiles Text: O=C(c1c([O-])[n+]2ccccc2n1Cc1cnc(Cl)s1)C(F)(F)F
efficacy (kill in %): 90

Smiles Text: CC(C)NC(=O)c1c([O-])[n+]2ccccc2n1Cc1cnc(Cl)s1
efficacy (kill in %): 100

Smiles Text: CC(C)OC(=O)C(=O)c1c([O-])[n+]2ccccc2n1Cc1cnc(Cl)s1
efficacy (kill in %): 100

Below: the item to evaluate.
Fill in the blank: the reported efficacy (kill in %) of "O=C(c1ccccc1)c1c([O-])[n+]2ccccc2n1Cc1cnc(Cl)s1" is ____.
90

---

System: Musca domestica
Measurement Description: Musca domestica test
Type: in vivo
Assay Conditions: application rate 100 ppm; adult houseflies; after 2 days
Test Readout: efficacy (kill in %)
Use % as the unit, but write only the number.

Compound: O=C(OCC1CC1)C(=O)c1c([O-])[n+]2ccccc2n1Cc1cnc(Cl)s1
Experimental System: Musca domestica
Result Units: %
efficacy (kill in %): 100
//
Compound: CCOC(=O)C(=O)c1c([O-])[n+]2cccc(C)c2n1Cc1cnc(Cl)s1
Experimental System: Musca domestica
Result Units: %
efficacy (kill in %): 100
//
Compound: CCNC(=O)c1c([O-])[n+]2ccccc2n1Cc1cnc(Cl)s1
Experimental System: Musca domestica
Result Units: %
efficacy (kill in %): 85
//
Compound: CCC(C)OC(=O)C(=O)c1c([O-])[n+]2ccccc2n1Cc1cnc(Cl)s1 (stereo not drawn)
Experimental System: Musca domestica
Result Units: %
efficacy (kill in %): 100
//
Compound: O=C(OC1CCC1)C(=O)c1c([O-])[n+]2ccccc2n1Cc1cnc(Cl)s1
Experimental System: Musca domestica
Result Units: %
efficacy (kill in %): 100

Could you share what efficacy (kill in %) was measured for "O=C(c1c([O-])[n+]2ccccc2n1Cc1cnc(Cl)s1)C(F)(F)Cl" , tested on Musca domestica?
80

---

Measurement Description: log P by HPLC (EEC directive 79/831 Annex V.A8)
Format: physicochemical
Test Readout: chromatographic logP
API doc: respond with a numeric literal and nothing else, no unit.

Fill in the blank: the reported chromatographic logP of "CC(C)(C)OC(=O)CN(Cc1cnc(Cl)s1)c1ncccc1I" is ____.
4.62

Fill in the blank: the reported chromatographic logP of "Cc1cccnc1N(CC(=O)OC(C)(C)C)Cc1cnc(Cl)s1" is ____.
4.13

---

Measurement Description: log P by HPLC (EEC directive 79/831 Annex V.A8)
Assay type: physicochemical
Assay Conditions: HPLC, reversed-phase column (C18), 43° C, acidic (HCOOH); read-out: log P (HCOOH)
Test Readout: chromatographic logP
API doc: respond with a numeric literal and nothing else, no unit.

Examples with answers:
Molecule: CC(C)(C)OC(=O)CN(Cc1cnc(Cl)s1)c1ncccc1C1CC1 [IV-2-003]
chromatographic logP: 4.73
//
Molecule: O=C(c1c([O-])[n+]2cccc(C3CC3)c2n1Cc1cnc(Cl)s1)C(F)(F)F [Example I-078]
chromatographic logP: 2.48
//
Molecule: O=C(OCC1CC1)C(=O)c1c([O-])[n+]2ccccc2n1Cc1cnc(Cl)s1 [Example I-034]
chromatographic logP: 1.94
//
Molecule: O=C(c1c([O-])[n+]2cccc(-c3ccccc3)c2n1Cc1cnc(Cl)s1)C(F)(F)F [Example I-109]
chromatographic logP: 2.99
//
Molecule: Oc1cn(Cc2cnc(Cl)s2)c2c(C3CC3)ccc[n+]12 [VII-1-003, 2,2,2-trifluoroacetate]
chromatographic logP: 1.27

Fill in the blank: the reported chromatographic logP of O=C(Cn1cc(Cl)cn1)c1c([O-])[n+]2ccccc2n1Cc1cnc(Cl)s1 [Example I-004] is ____.
1.83

Fill in the blank: the reported chromatographic logP of Oc1cn(Cc2cnc(Cl)s2)c2c(I)ccc[n+]12 [VII-1-002, 2,2,2-trifluoroacetate] is ____.
1.22

Fill in the blank: the reported chromatographic logP of Cc1ccc[n+]2c(O)cn(Cc3cnc(Cl)s3)c12 [VII-1-001, 2,2,2-trifluoroacetate] is ____.
0.75

---

Tested on: Myzus persicae
Measurement Description: Myzus persicae oral test
Format: in vivo
Assay Conditions: application rate 4 ppm; after 5 days
Test Readout: efficacy
Hey, just the number and the unit after it is fine.

Examples with answers:
Molecule: CCC(=O)c1c([O-])[n+]2ccccc2n1Cc1cnc(Cl)s1 [Example I-014]
efficacy: 100%
--
Molecule: O=C(c1c([O-])[n+]2ccccc2n1Cc1cncnc1)C(F)(F)F [Example I-012]
efficacy: 100%
--
Molecule: CC(C)(C)OC(=O)C(=O)c1c([O-])[n+]2ccccc2n1Cc1cnc(Cl)s1 [Example I-066]
efficacy: 90%
--
Molecule: O=C(OCCc1ccccc1)C(=O)c1c([O-])[n+]2ccccc2n1Cc1cnc(Cl)s1 [Example I-052]
efficacy: 100%
--
Molecule: O=C(c1c([O-])[n+]2ccccc2n1Cc1cnc(Cl)s1)C(F)(F)Cl [Example I-019]
efficacy: 100%
--
Molecule: CC(=O)c1c([O-])[n+]2ccccc2n1Cc1ccc(Cl)nc1 [Example I-003]
efficacy: 90%
--
Molecule: O=C(OCC1CCC1)C(=O)c1c([O-])[n+]2ccccc2n1Cc1cnc(Cl)s1 [Example I-039]
efficacy: 100%

Below: the item to evaluate.
Fill in the blank: the reported efficacy of O=C(OCCC(F)(F)F)C(=O)c1c([O-])[n+]2ccccc2n1Cc1cnc(Cl)s1 [Example I-054] is ____.
100%

---

Each item that follows carries a reported chromatographic logP.
Measurement Description: log P by HPLC (EEC directive 79/831 Annex V.A8)
Assay type: physicochemical
API doc: respond with a numeric literal and nothing else, no unit.

Examples with answers:
Compound: CO/N=C/C(=O)c1c([O-])[n+]2ccccc2n1Cc1cnc(Cl)s1 [Example I-059]
chromatographic logP: 1.45

Compound: O=C(O)CN(Cc1cnc(Cl)s1)c1ccccn1 [Example V-1-001]
chromatographic logP: 1.21

Compound: COCC(=O)c1c([O-])[n+]2ccccc2n1Cc1cnc(Cl)s1 [Example I-010]
chromatographic logP: 1.13

Fill in the blank: the reported chromatographic logP of O=C(c1c([O-])[n+]2cccc(I)c2n1Cc1cnc(Cl)s1)C(F)(F)F [Example I-112] is ____.
2.37

Fill in the blank: the reported chromatographic logP of O=Cc1c([O-])[n+]2ccccc2n1Cc1cnc(Cl)s1 [Example I-015] is ____.
1.01

---

Each item that follows carries a reported efficacy.
Tested on: Tetranychus urticae
Measurement Description: Tetranychus urticae spray test, OP-resistant
Type: in vivo
Assay Conditions: application rate 500 g/ha, bean leaf discs, after 6 days
Hey, just the number and the unit after it is fine.

Examples with answers:
Molecule: CCN(CC)C(=O)C(=O)c1c([O-])[n+]2ccccc2n1Cc1cnc(Cl)s1 [Example I-040]
Experimental System: Tetranychus urticae
Test Readout: efficacy
Result: 100%
//
Molecule: CCC(C)OC(=O)C(=O)c1c([O-])[n+]2ccccc2n1Cc1cnc(Cl)s1 (centres unmarked) [Example I-037]
Experimental System: Tetranychus urticae
Test Readout: efficacy
Result: 90%

Could you share what efficacy was measured for CN(C)C(=O)C(=O)c1c([O-])[n+]2ccccc2n1Cc1cnc(Cl)s1 [Example I-041] , tested on Tetranychus urticae?
90%

Could you share what efficacy was measured for COCCOC(=O)C(=O)c1c([O-])[n+]2ccccc2n1Cc1cnc(Cl)s1 [Example I-050] , tested on Tetranychus urticae?
90%

Could you share what efficacy was measured for O=C(OCC1CCC1)C(=O)c1c([O-])[n+]2ccccc2n1Cc1cnc(Cl)s1 [Example I-039] , tested on Tetranychus urticae?
90%

---

Measurement Description: log P by HPLC (EEC directive 79/831 Annex V.A8)
Type: physicochemical
Each item that follows carries a reported chromatographic logP.
API doc: respond with a numeric literal and nothing else, no unit.

Examples with answers:
Smiles Text: Cc1ccc[n+]2c([O-])c(C(=O)C(F)(F)F)n(Cc3cnc(Cl)s3)c12
chromatographic logP: 2.07

Smiles Text: O=C(CCl)c1c([O-])[n+]2ccccc2n1Cc1cnc(Cl)s1
chromatographic logP: 1.58

Smiles Text: CC(C)NC(=O)c1c([O-])[n+]2ccccc2n1Cc1cnc(Cl)s1
chromatographic logP: 1.66

Smiles Text: O=C(COCc1ccnc(Cl)c1)c1c([O-])[n+]2ccccc2n1Cc1ccc(Cl)nc1
chromatographic logP: 1.73

Smiles Text: CCOC(=O)C(=O)c1c([O-])[n+]2ccccc2n1Cc1cnc(Cl)s1
chromatographic logP: 1.55

Smiles Text: O=C(c1c([O-])[n+]2ccccc2n1Cc1cnc(Cl)s1)C(Cl)(Cl)Cl
chromatographic logP: 2.44

Fill in the blank: the reported chromatographic logP of "CC(C)(C)OC(=O)CN(Cc1cnc(Cl)s1)c1ccccn1" is ____.
3.59
